Values compiled from the supplement of paper PMC9446081.

Recorded relative enzymatic activity, one value per entry.
Target: DNA polymerase (UniProt P10443)
Sequence (P10443 whole entry): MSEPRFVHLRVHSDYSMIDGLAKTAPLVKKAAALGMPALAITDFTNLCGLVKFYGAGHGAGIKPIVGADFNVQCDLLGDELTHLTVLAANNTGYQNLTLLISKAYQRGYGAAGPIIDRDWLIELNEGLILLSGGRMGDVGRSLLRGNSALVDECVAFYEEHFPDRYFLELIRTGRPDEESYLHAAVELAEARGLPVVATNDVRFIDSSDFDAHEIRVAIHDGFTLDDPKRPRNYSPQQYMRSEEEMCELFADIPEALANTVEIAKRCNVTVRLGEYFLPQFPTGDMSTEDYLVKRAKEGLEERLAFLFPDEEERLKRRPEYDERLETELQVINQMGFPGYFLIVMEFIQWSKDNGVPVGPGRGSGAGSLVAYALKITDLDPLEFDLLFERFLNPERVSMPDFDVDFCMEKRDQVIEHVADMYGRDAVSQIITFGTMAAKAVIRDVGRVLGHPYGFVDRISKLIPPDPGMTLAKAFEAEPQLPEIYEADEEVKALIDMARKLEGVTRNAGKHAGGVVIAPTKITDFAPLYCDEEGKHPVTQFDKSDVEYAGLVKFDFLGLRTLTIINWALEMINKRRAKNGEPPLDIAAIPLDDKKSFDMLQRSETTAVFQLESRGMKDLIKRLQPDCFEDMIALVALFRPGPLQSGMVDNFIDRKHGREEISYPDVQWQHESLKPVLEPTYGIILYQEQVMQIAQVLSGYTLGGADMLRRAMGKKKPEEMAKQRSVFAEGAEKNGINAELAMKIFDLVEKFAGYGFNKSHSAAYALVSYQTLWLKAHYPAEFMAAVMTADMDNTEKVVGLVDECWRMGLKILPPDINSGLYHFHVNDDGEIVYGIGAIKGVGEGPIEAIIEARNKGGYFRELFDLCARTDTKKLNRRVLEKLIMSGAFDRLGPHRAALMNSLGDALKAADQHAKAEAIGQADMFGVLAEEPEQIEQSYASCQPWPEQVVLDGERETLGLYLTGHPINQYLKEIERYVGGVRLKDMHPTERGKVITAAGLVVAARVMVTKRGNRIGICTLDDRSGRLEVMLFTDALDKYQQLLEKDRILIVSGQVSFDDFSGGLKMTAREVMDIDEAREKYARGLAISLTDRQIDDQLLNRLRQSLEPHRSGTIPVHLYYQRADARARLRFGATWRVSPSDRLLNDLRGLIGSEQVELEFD
Assay: relative enzymatic activity vs untreated control (fraction); higher = less inhibition
Settings: 100 µM; incubation time: 2 h at 37 C

compound	relative enzymatic activity
CN(C)C1C(O)=C(C(N)=O)C(=O)C2(O)C(O)=C3C(=O)c4c(O)ccc(Cl)c4C(O)C3CC12.Cl (stereo not drawn)	1.16
CC(=O)OCC1=C(C(=O)[O-])N2C(=O)C(NC(=O)Cc3cccs3)C2SC1.[Na+] (stereo not drawn)	1.09
CCN1CCN(c2cc3c(cc2F)c(=O)c(C(=O)O)cn3C2CC2)CC1	1.15
COC1=C(OC)C(=O)C(CCCCCCCCCC[P+](c2ccccc2)(c2ccccc2)c2ccccc2)=C(C)C1=O	0.0027
N[C@@H]1[C@H]2CN(c3nc4c(cc3F)c(=O)c(C(=O)O)cn4-c3ccc(F)cc3F)C[C@@H]12	1.14
CCOC(=O)CCC(=O)O[C@H]1[C@H](O[C@@H]2[C@@H](C)[C@H](O[C@H]3C[C@@](C)(OC)[C@@H](O)[C@H](C)O3)[C@@H](C)C(=O)O[C@H](CC)[C@@](C)(O)[C@H](O)[C@@H](C)C(=O)[C@H](C)C[C@@]2(C)O)O[C@H](C)C[C@@H]1N(C)C	1.17
CON=C(C(=O)NC1C(=O)N2C(C(=O)OCOC(=O)C(C)(C)C)=C(C=Cc3scnc3C)CSC12)c1csc(N)n1 (stereo not drawn)	1.24
Cc1cn(C2CC(N=[N+]=[N-])C(CO)O2)c(=O)[nH]c1=O (stereo not drawn)	1.3

====

System: RNA polymerase
Test: relative enzymatic activity vs untreated control (fraction); higher = less inhibition
Conditions: 100 µM; incubation time: 2 h at 37 C

compound	relative enzymatic activity
CNC1C(O)C(NC)C2OC3(O)C(=O)CC(C)OC3OC2C1O.Cl.Cl (centres undefined)	0.871
COC(=O)N/N=C/c1c[n+]([O-])c2ccccc2[n+]1[O-]	0.789
NC(C(=O)NC1C(=O)N2C(C(=O)O)=C(Cl)CSC12)c1ccccc1 (centres undefined)	0.971
CO/N=C(\C(=O)N[C@@H]1C(=O)N2C(C(=O)O)=C(CSc3nnnn3C)CS[C@H]12)c1csc(N)n1	0.839
O=C(Cn1cnnn1)NC1C(=O)N2C(C(=O)O)=C(CSc3nncs3)CSC12 (centres undefined)	0.799
CO[C@@]12[C@@H]3N[C@@H]3CN1C1=C(C(=O)C(N)=C(C)C1=O)[C@@H]2COC(N)=O	0.82
CCN1CCN(C(=O)NC(C(=O)NC2C(=O)N3C(C(=O)O)=C(CSc4nnnn4C)CSC23)c2ccc(O)cc2)C(=O)C1=O (centres undefined)	0.96
CC1(C)S[C@@H]2[C@H](NC(=O)[C@H](N)c3ccccc3)C(=O)N2[C@H]1C(=O)OCOC(=O)[C@@H]1N2C(=O)C[C@H]2S(=O)(=O)C1(C)C	0.868
O=C1OCCN1N=Cc1ccc([N+](=O)[O-])o1	0.941

====

Biological target: GlmU (UniProt A7ZTU1)
Sequence (A7ZTU1 whole entry, looked up): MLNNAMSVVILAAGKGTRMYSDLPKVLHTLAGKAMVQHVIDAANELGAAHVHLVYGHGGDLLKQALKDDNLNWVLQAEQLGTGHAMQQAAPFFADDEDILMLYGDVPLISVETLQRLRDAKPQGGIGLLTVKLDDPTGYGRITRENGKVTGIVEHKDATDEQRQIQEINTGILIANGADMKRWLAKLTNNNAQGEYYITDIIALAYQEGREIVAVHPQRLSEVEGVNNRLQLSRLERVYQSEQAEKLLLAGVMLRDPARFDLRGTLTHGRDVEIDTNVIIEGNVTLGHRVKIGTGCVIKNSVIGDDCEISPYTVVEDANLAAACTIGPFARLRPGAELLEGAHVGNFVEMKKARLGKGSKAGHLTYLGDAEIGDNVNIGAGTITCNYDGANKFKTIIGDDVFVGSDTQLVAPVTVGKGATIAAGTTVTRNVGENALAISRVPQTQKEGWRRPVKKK
Experiment: relative enzymatic activity vs untreated control (fraction); higher = less inhibition
Details: 100 µM; incubation time: 2 h at 37 C
Recorded relative enzymatic activity, one value per entry.

compound	relative enzymatic activity
CC(C)(O/N=C(\C(=O)N[C@@H]1C(=O)N2C(C(=O)O)=C(C[n+]3ccccc3)CS[C@H]12)c1csc(N)n1)C(=O)O	1.01
Cl.O=C1CC2(CCCC2)CC(=O)N1CCCCN1CCN(c2ncccn2)CC1	1.03
CC[C@H]1OC(=O)[C@H](C)[C@@H](O[C@H]2C[C@@](C)(OC)[C@@H](O)[C@H](C)O2)[C@H](C)[C@@H](O[C@@H]2O[C@H](C)C[C@H](N(C)C)[C@H]2O)[C@](C)(O)C[C@@H](C)C(=O)[C@H](C)[C@@H](O)[C@]1(C)O	0.966
CCCCCCCCCCCCCCCC[N+](C)(C)Cc1ccccc1.[Cl-]	0.115
COC1C=COC2(C)Oc3c(C)c(O)c4c(O)c(c(C=NN5CCN(C)CC5)c(O)c4c3C2=O)NC(=O)C(C)=CC=CC(C)C(O)C(C)C(O)C(C)C(OC(C)=O)C1C (configuration not stated)	0.288
NCCC(O)C(=O)NC1CC(N)C(OC2OC(CN)C(O)C(O)C2O)C(O)C1OC1OC(CO)C(O)C(N)C1O.O (configuration not stated)	0.994
CCCCCCCCCCCCC[N+](C)(C)Cc1ccccc1.O.[Cl-]	0.157
